For each entry below, report its %Inh value.
System: ERK2
Construct: gene MAPK1
Settings: concentration: 1 μM, replicates: in singlicate; n = 1;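 further: KINOMEscan kinase panel screen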
Response body: numeric value in %, unit text excluded.

Item Cc1ccccc1-c1cc(-c2c[nH]nc2-c2ccccn2)ccn1 has what recorded %Inh?
0

Next compound: Cc1nccc(-c2c(-c3ccc(F)cc3)ncn2CCCN2CCOCC2)n1.Cl
8

Another compound: Cn1cncc1-c1cc2c(Nc3ccc(OCc4ccccc4)cc3)ncnc2cn1
0

Another compound to look at: CNCc1ccc2nc(NC(=O)c3ccc(C(C)(C)C)cc3)cn2c1
0

Can you check Cc1ccc(NC(=O)Nc2ccccc2)cc1-c1ccc(C(=O)Nc2ccncc2)cc1 next?
0

Please answer likewise for Cc1ccc(NC(=O)Nc2ccccc2F)cc1-c1ccc(C(=O)Nc2ccncc2)cc1
9

For COC(=O)C(NC(=O)NC1CCN(c2ccnc(Nc3ccc(F)cc3)n2)C1)c1ccccc1 (stereo not shown) then?
0

Try Cc1ccc(-c2nc(Nc3ccncc3)c3ccccc3n2)s1 next.
100

Item: CCCCc1nn2ncccc2c1-c1ccnc(NC2CC2)n1
0

Another compound to look at: O=C(Nc1n[nH]c2nc(-c3cccs3)c(Br)cc12)C1CC1
0

Try O=C(Nc1n[nH]c2cc(-c3ccsc3)ccc12)C1CC1 next.
7

Similarly, Cc1cccc2c(-c3ccncn3)c(-c3ccc(F)cc3)nn12 ?
0

Same read-out for O=c1cc(N2CCOCC2)nc2n(Cc3ccccc3F)ccn12 ?
0

Next compound up: CC(=O)c1c(C)c2cnc(Nc3ccn(C)n3)nc2n(C2CCCC2)c1=O
0

Next compound: Cc1cnc(N)c(/C=C/c2cncc(C(=O)NCCc3ccc(Cl)cc3Cl)c2)c1.Cl
0

Thanks! And COC(=O)c1cccc(NC(=O)NC2CCN(c3ccnc(Nc4ccc(OC)cc4)n3)C2)c1 (stereo not shown) ?
0

Now try COc1ccc(CSc2nnc(-c3ccc4nccn4c3)o2)cc1C(F)(F)F .
0

Field entry: COc1ccc(Nc2nccc(N3CCC(NC(=O)c4cc5ccccc5s4)C3)n2)cc1 (stereo not shown)
0

Field entry: CC(=O)c1cccc(NC(=O)NC2CCN(c3ccnc(Nc4ccc(F)cc4)n3)C2)c1 (stereo not shown)
0

---

Provide the recorded %Inh for the entries that follow.
Tested on: INSR
Settings: concentration: 1 μM, replicates: in singlicate; n = 1
The reply should contain only the number, in %.

Find the recorded %Inh belonging to Cc1ccccc1Cn1ccn2c(=O)cc(N3CCOCC3)nc12 [GSK2269905] and report it.
17

Subsequent entry: COc1ccc(Nc2nccc(N3CCC(NC(=O)C(C)c4ccc(Cl)cc4)C3)n2)cc1 (stereo not drawn) [GSK1379735]
11

Cool, now COc1ccc(Nc2nccc(N3CCC(NC(=O)c4cc5ccccc5s4)C3)n2)cc1 (stereo not drawn) [GSK1379738]
5

Let us now turn to COC(=O)c1cccc(NC(=O)NC2CCN(c3ccnc(Nc4ccc(OC)cc4)n3)C2)c1 (stereo not drawn) [GSK1379746]
0

And what about the compound COc1cccc(NC(=O)Nc2ccc(C)c(-c3ccc(C(=O)Nc4ccncc4)cc3)c2)c1 [GSK1398474] ?
0

Same thing, different compound: Cc1cnc(N)c(/C=C/c2cncc(C(=O)NCCc3ccc(Cl)cc3Cl)c2)c1.Cl [GSK190937]
31

What about this compound? Fc1ccc(-c2nn3cccc(F)c3c2-c2ccncc2)cc1 [GW475620]
13

Next compound: Nc1ncnc2occ(-c3ccc4c(c3)CCN4C(=O)Cc3cc(F)ccc3F)c12 [GSK2645446]
0

Then this compound: COc1ccc(Nc2nccc(NCCNC(=O)Nc3cc(C)ccc3C)n2)cc1 [GSK1379899]
0

---

I'd appreciate it if you could supply %Inh values for the items below.
Test system: BMX
Details: concentration: 1 μM, replicates: in singlicate; n = 1
Reply with just the number (in %).

Reported %Inh for CCn1c(-c2ccccc2)nc2cnccc21 : what is it?
0

Another compound to check: Cc1cnc(N)c(/C=C/c2cncc(C(=O)NCCc3ccc(Cl)cc3Cl)c2)c1.Cl
19

Entry to check: O=C1NC(=O)C(c2ccc(Cl)cc2)=C1Nc1ccc(O)cc1
21

Try CNc1cc(-c2ccc3c(N)n[nH]c3c2)nc(N)n1 next.
15

Entry COc1ccc(Nc2nccc(N3CCC(NC(=O)c4cc5ccccc5s4)C3)n2)cc1 (stereo not drawn) please
0

Subsequent entry: NS(=O)(=O)c1cccc(N/C=C2\C(=O)Nc3ccc(S(=O)(=O)Cc4c(Cl)cccc4Cl)cc32)c1
0

Would you kindly repeat that for Cc1cccc2c(-c3ccncn3)c(-c3ccc(F)cc3)nn12 ?
0

What do we get for CSc1ccc(-c2nc3n(c2-c2ccncc2)CCC3)cc1 ?
0

Also O=C(Nc1n[nH]c2nc(-c3ccco3)c(Br)cc12)C1CCN(Cc2ccccc2)C1.O=C(O)[C@H](O)[C@@H](O)C(=O)O (stereo not drawn) , if possible.
0

---

Give %Inh for every item shown.
Test system: CAMK1
Conditions: concentration: 1 μM, replicates: in singlicate; n = 1
Write the number in % without appending the unit.

Look up %Inh for this compound: CCCCc1nn2ncccc2c1-c1ccnc(NC2CC2)n1 [GW684374]
9

Here is the next compound: Cc1ccc(NC(=O)Nc2ccc(Cl)cc2)cc1-c1ccc(C(=O)Nc2ccncc2)cc1 [GSK1398472]
10

Queued: Cn1cnc2c(N)ncnc21 [SKF-97623]
0

What do we get for CC(=O)c1cccc(NC(=O)NC2CCN(c3ccnc(Nc4ccc(F)cc4)n3)C2)c1 (stereo not drawn) [GSK1379710] ?
20

And then COc1ccc(CSc2nnc(-c3ccc4c(c3)CCO4)o2)cc1 , what is it?
0

Also NS(=O)(=O)c1cccc(N/C=C2\C(=O)Nc3ccc(S(=O)(=O)Cc4c(Cl)cccc4Cl)cc32)c1 [GSK398099] , if possible.
27

Could you do the same for Cc1c(Cn2c3ccccc3n3c(=O)cc(N4CCOCC4)nc23)cccc1C(F)(F)F [GSK2306394] , please?
5

Same lookup for COc1ccc(Nc2nccc(N3CCC(NC(=O)C(C)c4ccc(Cl)cc4)CC3)n2)cc1 (stereo not drawn) [GSK1379812] , please.
25

Can you check COc1ccc(Nc2nccc(NCCNC(=O)Nc3cc(C)ccc3C)n2)cc1 [GSK1379899] next?
3

---

Test system: ZAK
Details: concentration: 1 μM, replicates: in singlicate; n = 1
Friendly reminder: %Inh below 20% is label 1, at or above is label 0.

Find out if reported %Inh for O=C1NC(=O)C(c2ccc(Cl)cc2)=C1Nc1cccc(Cl)c1 [SB-317651] is less than 20%
label 1

Continue with CCn1c(-c2c(N)noc2C)nc2cnccc21 [SB-737856]
label 0

Also COc1cccc(NC(=O)Nc2ccc(C)c(-c3ccc(C(=O)Nc4ccncc4)cc3)c2)c1 [GSK1398474] ?
label 0

Then this molecule: Cc1ccccc1-c1cc(-c2c[nH]nc2-c2ccccn2)ccn1 [GW680061]
label 1

# iterate: CCc1ccc(-c2ccc3c(c2)-c2n[nH]cc2S(=O)(=O)N3C)cc1
label 1

---

Tested on: EPHA2
Settings: concentration: 1 μM, replicates: in singlicate; n = 1
readout: %Inh (%)
# value in %; strip the unit string

Bench note: what %Inh did COc1ccc(Nc2nccc(-c3ccc(NC(=O)c4cc5cc(F)ccc5[nH]4)cc3)n2)cc1 [GSK1229496] show?
1

CNCc1ccc2nc(NC(=O)c3ccc(C(C)(C)C)cc3)cn2c1 , same question.
3

And the next one, O=c1cc(N2CCOCC2)nc2n(Cc3ccccc3F)ccn12 [GSK2297428] ?
21

Also O=C(Nc1n[nH]c2cc(-c3ccsc3)ccc12)C1CC1 [SB-732932] ?
0

What do we get for COc1ccc(Nc2nccc(N3CCC(NC(=O)C(C)c4ccc(Cl)cc4)C3)n2)cc1 (stereo not shown) [GSK1379735] ?
25

Continue with COC(=O)c1cccc(NC(=O)NC2CCN(c3ccnc(Nc4ccc(F)cc4)n3)C2)c1 (stereo not shown) [GSK1379725]
16

Then what about the molecule COc1cccc(CNC(=O)NC2CCN(c3ccnc(Nc4ccc(F)cc4)n3)C2)c1 (stereo not shown) [GSK1379723] ?
2

One more molecule: c1ccc(-c2ccnc3[nH]ccc23)cc1 [SB-693578]
0

Follow-up item: Cc1nccc(-c2c(-c3ccc(F)cc3)ncn2CCCN2CCOCC2)n1.Cl [SB-282975]
16

Likewise for CNC(=O)c1ccc(C)c(-n2c(C)cc(OCc3ccc(F)cc3F)c(Br)c2=O)c1 ?
0

---

System: IRAK3
Conditions: concentration: 1 μM, replicates: in singlicate; n = 1
Give measured %Inh for each item. Keep answers brief.
Give the quantity in %, number only.

// query %Inh value for entry CNc1nc(-c2ccc3c(N)n[nH]c3c2)cc(N2C[C@@H](C(=O)NC3CCCCC3)OC[C@H]2C)n1 [GSK2375584]
0

Another molecule: FC(F)(F)c1ccccc1-c1cc(-c2c[nH]nc2-c2ccccn2)ccn1 [GW679396]
0

Now consider Fc1ccc(-c2nc3n(c2-c2ccncc2)CCS3)cc1 [GI98581] and answer again.
4

What about this molecule? CCn1c(-c2ccccc2)nc2cnccc21 [SB-733416]
4

Let us now turn to Nc1cccc(-c2ccc3c(N)n[nH]c3c2)n1 [GSK2192730]
17

Another molecule: O=C(Nc1n[nH]c2nc(-c3cccs3)c(Br)cc12)C1CC1 [SB-735297]
0

// repeat for CNc1cc(-c2ccc3c(N)n[nH]c3c2)nc(N)n1 [GSK2224810] and report
0

Now the molecule Cc1ccc(NC(=O)Nc2ccc(Cl)cc2)cc1-c1ccc(C(=O)Nc2ccncc2)cc1 [GSK1398472]
4

Would you kindly repeat that for Cc1nccc(-c2c(-c3ccc(F)cc3)ncn2CCCN2CCOCC2)n1.Cl [SB-282975] ?
0

Please answer likewise for COc1cccc(C2=C(Nc3cc(Cl)c(O)c(Cl)c3)C(=O)NC2=O)c1 [SB-390767]
0
